Parameter: CC50. Scope: all listed entries.
- Assay comment: in vitro
- Measurement conditions: human
Dear colleague, please return just the value in µM, with no unit written.

>>> df
                               smiles_entry  experimental_result
0  COc1c(-c2ccc3cc(NS(C)(=O)=O)ccc3c2)cc(-n2ccc(=O)[nH]c2=O)c2c1C(C)(C)CO2                   12

Query (molecule): CC1(C)COc2c(-c3ccc4cc(NS(C)(=O)=O)ccc4c3)cc(-n3ccc(=O)[nH]c3=O)cc21 ; field requested: CC50
2.7
